Tested on: Staphylococcus aureus
runDescription: Antibacterial activity against Staphylococcus aureus assessed as bacterial growth inhibition preincubated with compound for 15 mins followed by light irradiated with 730 nm, 40 J/cm2 and measured after 24 hrs by broth microdilution method
Type: functional
conditionDescription: light or radiation study, 24.25 h, time 1455 min
measuredQuantity: MIC (µM)

testSmiles	observed
[Br-].[Br-].[Br-].[Br-].c1cc[n+](CCCCCCOc2ccc(-c3c4nc(c(-c5ccc(OCCCCCC[n+]6ccccc6)cc5)c5[nH]c(c(-c6ccc(OCCCCCC[n+]7ccccc7)cc6)c6nc(c(-c7ccc(OCCCCCC[n+]8ccccc8)cc7)c7[nH]c3c3cc8ccccc8cc73)-c3cc7ccccc7cc3-6)c3cc6ccccc6cc53)-c3cc5ccccc5cc3-4)cc2)cc1	64
[Br-].[Br-].[Br-].[Br-].c1cc[n+](CCCOc2ccc(-c3c4nc(c(-c5ccc(OCCC[n+]6ccccc6)cc5)c5[nH]c(c(-c6ccc(OCCC[n+]7ccccc7)cc6)c6nc(c(-c7ccc(OCCC[n+]8ccccc8)cc7)c7[nH]c3c3cc8ccccc8cc73)-c3cc7ccccc7cc3-6)c3cc6ccccc6cc53)-c3cc5ccccc5cc3-4)cc2)cc1	8
CC[N+](C)(CC)CCCCCOc1ccc(-c2c3nc(c(-c4ccc(OCCCCC[N+](C)(CC)CC)cc4)c4[nH]c(c(-c5ccc(OCCCCC[N+](C)(CC)CC)cc5)c5nc(c(-c6ccc(OCCCCC[N+](C)(CC)CC)cc6)c6[nH]c2c2cc7ccccc7cc62)-c2cc6ccccc6cc2-5)c2cc5ccccc5cc42)-c2cc4ccccc4cc2-3)cc1.[Br-].[Br-].[Br-].[Br-]	16

// data source = ChEMBL document CHEMBL6182869
